# System: Anti-OAcGD3 antibody
# PROTOCOL_DESCRIPTION: ELISA of immobilized MAP-form peptides with control anti-OAcGD3 antibody
# Type: binding
# CONDITION_SUMMARY: MAP form 100 ng/well; Serum % 25%
Please go through the items and note down their ELISA absorbance, Anti-OAcGD3 antibody.

Worked cases, ELISA absorbance, Anti-OAcGD3 antibody given:
| MONOMER_SEQUENCE | RECORDED_RESULT |
| --- | --- |
| LAPPRPRSELVFLSV (LAPPRPRSQLVFLSV) [GD3R1, tested as phage clone, MAP form or peptide] | 0.041 |
| PHFDSLLYPCELLGC (PHFDSLLYPCQLLGC) [GD3R2, tested as phage clone, MAP form or peptide] | 0.023 |
| GLAPPDYAERFELLS [GD3R3, tested as phage clone, MAP form or peptide] | 0.026 |

// query # input sequence: RHAYRSMAEWGFLYS (RHAYRSMAQWGFLYS) [GD3R4, tested as phage clone, MAP form or peptide] ; wanted: its ELISA absorbance, Anti-OAcGD3 antibody
// result 0.043

###

# Test system: T-cell-rich lymphocytes / IL-2-dependent CTLL2 cells
# PROTOCOL_DESCRIPTION: Cell response test: IL-2 activity (3H thymidine up-take of CTLL2 cells) in supernatant of spleen cells of mice immunized with R4 peptide (R4-KLH)
# Type: cell-based, mouse
# CONDITION_SUMMARY: mice immunized with R4 peptide; stimulant 5 μg/ml; supernatant dilution 1/50
Please go through the items and note down their 3H Thymidine up-take into CTLL2 cells, mean ± SE (4 wells).
One number for each entry.

Worked cases, 3H Thymidine up-take into CTLL2 cells, mean ± SE (4 wells) given:
| MONOMER_SEQUENCE | RECORDED_RESULT |
| --- | --- |
| GLAPPDYAERFELLS [GD3R3, tested as phage clone, MAP form or peptide] | 812 |
| PHFDSLLYPCELLGC (PHFDSLLYPCQLLGC) [GD3R2, tested as phage clone, MAP form or peptide] | 174 |
| LAPPRPRSELVFLSV (LAPPRPRSQLVFLSV) [GD3R1, tested as phage clone, MAP form or peptide] | 236 |

Now let's try a different one.
// query # input sequence: RHAYRSMAEWGFLYS (RHAYRSMAQWGFLYS) [GD3R4, tested as phage clone, MAP form or peptide] ; wanted: its 3H Thymidine up-take into CTLL2 cells, mean ± SE (4 wells)
// result 3058

###

# Tested on: T-cell-rich lymphocytes / IL-2-dependent CTLL2 cells
# PROTOCOL_DESCRIPTION: Cell response test: IL-2 activity (3H thymidine up-take of CTLL2 cells) in supernatant of spleen cells of mice immunized with R4 peptide (R4-KLH)
# Format: cell-based, mouse
# CONDITION_SUMMARY: mice immunized with R4 peptide; stimulant 5 μg/ml; supernatant dilution 1/20
OUTCOME_MEASURE: 3H Thymidine up-take into CTLL2 cells, mean ± SE (4 wells)
Answers are plain numbers.

Worked cases, 3H Thymidine up-take into CTLL2 cells, mean ± SE (4 wells) given:
| MONOMER_SEQUENCE | RECORDED_RESULT |
| --- | --- |
| GLAPPDYAERFELLS [GD3R3, tested as phage clone, MAP form or peptide] | 1684 |
| PHFDSLLYPCELLGC (PHFDSLLYPCQLLGC) [GD3R2, tested as phage clone, MAP form or peptide] | 748 |
| RHAYRSMAEWGFLYS (RHAYRSMAQWGFLYS) [GD3R4, tested as phage clone, MAP form or peptide] | 8354 |

// query Field: 3H Thymidine up-take into CTLL2 cells, mean ± SE (4 wells) (T-cell-rich lymphocytes / IL-2-dependent CTLL2 cells). Entry: LAPPRPRSELVFLSV (LAPPRPRSQLVFLSV) [GD3R1, tested as phage clone, MAP form or peptide]
// result 901

###

# Tested on: Anti-GD2 antibody
# PROTOCOL_DESCRIPTION: ELISA of immobilized MAP-form peptides with control anti-GD2 antibody
# Format: binding
# CONDITION_SUMMARY: MAP form 100 ng/well; Serum % 100%
OUTCOME_MEASURE: ELISA absorbance, Anti-GD2 antibody

Worked cases, ELISA absorbance, Anti-GD2 antibody given:
| MONOMER_SEQUENCE | ASSAYED_SYSTEM | RECORDED_RESULT |
| --- | --- | --- |
| PHFDSLLYPCELLGC (PHFDSLLYPCQLLGC) [GD3R2, tested as phage clone, MAP form or peptide] | Anti-GD2 antibody | 0.132 |
| GLAPPDYAERFELLS [GD3R3, tested as phage clone, MAP form or peptide] | Anti-GD2 antibody | 0.191 |
| LAPPRPRSELVFLSV (LAPPRPRSQLVFLSV) [GD3R1, tested as phage clone, MAP form or peptide] | Anti-GD2 antibody | 0.123 |

Now let's try a different one.
// query # input sequence: RHAYRSMAEWGFLYS (RHAYRSMAQWGFLYS) [GD3R4, tested as phage clone, MAP form or peptide] ; wanted: its ELISA absorbance, Anti-GD2 antibody
// result 0.149

###

Please go through the items and note down their 3H Thymidine up-take into CTLL2 cells, mean ± SE (4 wells).
# Tested on: T-cell-rich lymphocytes / IL-2-dependent CTLL2 cells
# PROTOCOL_DESCRIPTION: Cell response test: IL-2 activity (3H thymidine up-take of CTLL2 cells) in supernatant of spleen cells of mice immunized with GD3; further: unit not given here
# Assay type: cell-based, mouse
# CONDITION_SUMMARY: mice immunized with GD3; stimulant 2 μg/ml; supernatant dilution ⅕
One number for each entry.

Worked cases, 3H Thymidine up-take into CTLL2 cells, mean ± SE (4 wells) given:
| MONOMER_SEQUENCE | ASSAYED_SYSTEM | RECORDED_RESULT |
| --- | --- | --- |
| PHFDSLLYPCELLGC (PHFDSLLYPCQLLGC) [GD3R2, tested as phage clone, MAP form or peptide] | T-cell-rich lymphocytes / IL-2-dependent CTLL2 cells | 1719 |
| RHAYRSMAEWGFLYS (RHAYRSMAQWGFLYS) [GD3R4, tested as phage clone, MAP form or peptide] | T-cell-rich lymphocytes / IL-2-dependent CTLL2 cells | 8349 |

Give me 3H Thymidine up-take into CTLL2 cells, mean ± SE (4 wells) for each of these sequences, listed below.
1. GLAPPDYAERFELLS [GD3R3, tested as phage clone, MAP form or peptide]
2. LAPPRPRSELVFLSV (LAPPRPRSQLVFLSV) [GD3R1, tested as phage clone, MAP form or peptide]

// result
1. 3243
2. 1831

###

# Tested on: Anti-GD2 antibody
# PROTOCOL_DESCRIPTION: ELISA of immobilized MAP-form peptides with control anti-GD2 antibody
# Type: binding
# CONDITION_SUMMARY: MAP form 100 ng/well; Serum % 25%
# Description: A 0.1M NaHCO3 solution containing a GD3-mimetic peptide of the invention in the above MAP form (100 ng/100 μL) was added to the wells of a 96-well micro-titer plate, for immobilization at room temperature for one hour. Subsequently, in a manner similar to the ELISA method employed in Example 2, binding affinity of the GD3-mimetic peptide to GD3 antibody 4F6 was investigated. […]
Please go through the items and note down their ELISA absorbance, Anti-GD2 antibody.
One number for each entry.

Worked cases, ELISA absorbance, Anti-GD2 antibody given:
| MONOMER_SEQUENCE | OUTCOME_MEASURE | RECORDED_RESULT |
| --- | --- | --- |
| GLAPPDYAERFELLS [GD3R3, tested as phage clone, MAP form or peptide] | ELISA absorbance, Anti-GD2 antibody | 0.118 |
| RHAYRSMAEWGFLYS (RHAYRSMAQWGFLYS) [GD3R4, tested as phage clone, MAP form or peptide] | ELISA absorbance, Anti-GD2 antibody | 0.072 |
| PHFDSLLYPCELLGC (PHFDSLLYPCQLLGC) [GD3R2, tested as phage clone, MAP form or peptide] | ELISA absorbance, Anti-GD2 antibody | 0.071 |

// query # input sequence: LAPPRPRSELVFLSV (LAPPRPRSQLVFLSV) [GD3R1, tested as phage clone, MAP form or peptide] ; wanted: its ELISA absorbance, Anti-GD2 antibody
// result 0.067

###

# Tested on: T-cell-rich lymphocytes / IL-2-dependent CTLL2 cells
# PROTOCOL_DESCRIPTION: Cell response test: IL-2 activity (3H thymidine up-take of CTLL2 cells) in supernatant of spleen cells of mice immunized with GD3; further: unit not given here
# Type: cell-based, mouse
# CONDITION_SUMMARY: mice immunized with GD3; stimulant 1 μg/ml; supernatant dilution ⅕
OUTCOME_MEASURE: 3H Thymidine up-take into CTLL2 cells, mean ± SE (4 wells)
Give bare numbers.

| MONOMER_SEQUENCE | RECORDED_RESULT |
| --- | --- |
| RHAYRSMAEWGFLYS (RHAYRSMAQWGFLYS) [GD3R4, tested as phage clone, MAP form or peptide] | 3418 |
| LAPPRPRSELVFLSV (LAPPRPRSQLVFLSV) [GD3R1, tested as phage clone, MAP form or peptide] | 1967 |
| PHFDSLLYPCELLGC (PHFDSLLYPCQLLGC) [GD3R2, tested as phage clone, MAP form or peptide] | 1784 |

Now let's try a different one.
// query # input sequence: GLAPPDYAERFELLS [GD3R3, tested as phage clone, MAP form or peptide] ; wanted: its 3H Thymidine up-take into CTLL2 cells, mean ± SE (4 wells)
// result 2654
